Molecular target: Tubulin (Homo sapiens) (UniProt P68371+Q9H4B7+P0DPH7+P68366+Q13509+Q71U36+P04350+Q3ZCM7+P07437+P68363+Q9BQE3+Q6PEY2+Q13885+Q9BVA1+Q9BUF5);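 note: inhibition measured as displacement of [3H]colchicine bound to tubulin, read after 10 min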
Settings: at 1 µM
Description: Displacement of [3H]colchicine from tubulin (unknown origin) at 1 uM after 10 mins
Calls of active or inactive are those of the source. No cut-off for these calls is given here.
quantity.measured: inhibition

Examples from the recorded data:
smiles.string	observed.result
COc1ccc(Nc2nc(-c3ccccc3)no2)cc1Cl	52%
COc1ccc(OC)c(-c2noc(Nc3ccc4c(c3)OCCO4)n2)c1	23%
CCc1ccc(Nc2nc(-c3cccc(OC)c3)no2)cc1	40%
COc1ccc(OC)c(Nc2nc(-c3cccc(OC)c3OC)no2)c1	inactive
Cc1ccc(Nc2nc(-c3ccccc3F)no2)cc1	57%

### Prompt Given the compound `COc1ccc(Nc2nc(-c3ccccc3F)no2)cc1` , what is its reported inhibition?
### Response 68%

### Prompt Again, but for `CCOc1ccc(Nc2nc(-c3cccc(OC)c3)no2)cc1`
### Response 37%

### Prompt Also, `COc1ccc(Nc2nc(-c3cccc(OC)c3)no2)cc1` please.
### Response 58%

### Prompt Entry to check: `CCc1ccc(Nc2nc(-c3ccccc3F)no2)cc1`
### Response 41%

### Prompt // query: `COc1cccc(-c2noc(Nc3ccc(C)cc3)n2)c1`
### Response 56%

### Prompt Similarly, `COc1ccc(OC)c(-c2noc(Nc3ccc(C)c(F)c3)n2)c1` ?
### Response inactive

### Prompt Same question, `CCOc1ccc(Nc2nc(-c3ccccc3)no2)cc1` this time
### Response 49%

### Prompt What do you have for `COc1cccc(-c2noc(Nc3ccc4c(c3)OCCO4)n2)c1` ?
### Response 38%

### Prompt # repeat for `COc1ccc(Nc2nc(-c3cccc(OC)c3OC)no2)cc1`
### Response 31%

### Prompt Now consider `COc1cccc(-c2noc(Nc3ccc(OC)c(Cl)c3)n2)c1` .
### Response 36%

### Prompt Next record, please: `Cc1ccc(Nc2nc(-c3ccccc3)no2)cc1`
### Response 61%

### Prompt Query `COc1cccc(-c2noc(Nc3ccc4c(c3)OCO4)n2)c1` next
### Response 40%

### Prompt Same for `CCc1ccc(Nc2nc(-c3cc(OC)ccc3OC)no2)cc1`
### Response 36%

### Prompt Okay, and `CCOc1ccc(Nc2nc(-c3ccccc3F)no2)cc1` ?
### Response 42%

### Prompt Now the same for `CCOc1ccc(Nc2nc(-c3cccc(OC)c3OC)no2)cc1`
### Response 20%

### Prompt Similarly, `Cc1ccc(Nc2nc(-c3ccccc3F)no2)cc1F` ?
### Response 52%

### Prompt // query: `Fc1ccccc1Nc1nc(-c2ccccc2)no1`
### Response inactive

### Prompt // query: `CCOC(=O)c1cccc(Nc2nc(-c3ccc(OC)cc3)no2)c1`
### Response inactive

### Prompt Repeat for the following compound: `COc1cccc(-c2noc(Nc3ccc(C)cc3)n2)c1OC`
### Response 24%

### Prompt Moving on to the next compound: `COc1ccc(OC)c(-c2noc(Nc3ccc4c(c3)OCO4)n2)c1`
### Response 21%
